# System: U2OS
# protocol.notes: Multiplex assay against U2OS
# Type: toxicity, cell-based
# condition.info: human, 48 h, 10 µM, compound concentration 10 uM, replicate 2
reported.property: Population Hoechst High Intensity Objects (%)

structure.smiles.string | recorded.measurement
CCCCC[C@H](O)/C=C/[C@H]1[C@H](O)CC(=O)[C@@H]1CCCCCCC(=O)O | 2
Cn1cc(C(=O)OCC2CCN(CCNS(C)(=O)=O)CC2)c2ccccc21 | 3
C=CCN1C[C@H](C(=O)N(CCCN(C)C)C(=O)NCC)C[C@@H]2c3cccc4[nH]cc(c34)C[C@H]21 | 4

---

# Tested on: HEK-293T
# protocol.notes: Multiplex assay against HEK293T
# Type: toxicity, cell-based
# condition.info: human, 24 h, 1 µM, compound concentration 1 uM, replicate 2
Listed here are molecules together with their documented Population Healthy Nuclei (%).

structure.smiles.string | Population Healthy Nuclei (%)
Nc1nc(-c2ccco2)c2cnn(Cc3ccccc3F)c2n1 | 81
COc1ccc2[nH]c(I)c(CCNC(C)=O)c2c1 | 78
C[C@@H]1CC(=O)Nc2cccc(-c3ccc4c(c3)c(-c3cnn(C)c3)nn4C)c2N1 | 79

---

# Tested on: U2OS
# protocol.notes: Multiplex assay against U2OS
# Type: toxicity, cell-based
# condition.info: human, 24 h, 10 µM, compound concentration 10 uM, replicate 2
Listed here are compounds together with their documented Population Healthy Nuclei (%).

compound | Population Healthy Nuclei (%)
COc1ccc2[nH]c(I)c(CCNC(C)=O)c2c1 [IODOMELATONIN] | 59%
Cl.Cl.OCCOCCN1CCN(C(c2ccccc2)c2ccc(Cl)cc2)CC1 (stereo not drawn) [HYDROXYZINE HYDROCHLORIDE] | 60%
C[C@@H]1CC(=O)Nc2cccc(-c3ccc4c(c3)c(-c3cnn(C)c3)nn4C)c2N1 | 78%

---

Listed here are compounds together with their documented Population Membrane Permeable-Phenotype (%).
# Test system: Fibroblast
# protocol.notes: Multiplex assay against human fibroblast
# Type: toxicity, cell-based
# condition.info: 24 h, 1 µM, compound concentration 1 uM, replicate 1
reported.property: Population Membrane Permeable-Phenotype (%)

compound | recorded.measurement
O=C(O)CCC/C=C\CC1C(O)CC(O)C1/C=C/C(O)COc1cccc(Cl)c1 (configuration not stated) | 1
C=CCN1C[C@H](C(=O)N(CCCN(C)C)C(=O)NCC)C[C@@H]2c3cccc4[nH]cc(c34)C[C@H]21 | 1
Nc1nc(CC(=O)Nc2ccc(CCNC[C@H](O)c3ccccc3)cc2)cs1 | 1
Cc1c(Cc2ccc3ccccc3n2)c2cc(F)ccc2n1CC(=O)O | 3
Cc1nn(C)c2nc(NNC(=O)Nc3cc(Cl)nc(Cl)c3)cc(C(C)C)c12 | 1
O=c1nc2[nH]c3ccccc3nc-2c(=O)[nH]1 | 0
COc1cc(Nc2ncc3c(n2)-c2ccc(Cl)cc2C(c2c(F)cccc2OC)=NC3)ccc1C(=O)O | 2
COc1c(Nc2ccc(S(C)(=O)=O)nc2C)ncnc1OC1CCN(C(=O)OC(C)C)CC1 | 0
CC(C)(O)C(=O)N1CCN(c2ccc(C(F)(F)F)c(C3=C(c4c[nH]c5ccccc45)C(=O)NC3=O)c2)CC1 | 0
Cc1cc(-c2ccc3c(c2)CC[C@H]3N2CC3(CCN(C(=O)Cc4cn5cc(C)sc5n4)CC3)C2)ncn1 | 1
Cl.Cl.OCCOCCN1CCN(C(c2ccccc2)c2ccc(Cl)cc2)CC1 (configuration not stated) [HYDROXYZINE HYDROCHLORIDE] | 2
CCCCCCNC(=O)Nc1ccc(S(=O)(=O)Nc2ccc(CCNC[C@H](O)COc3ccc(O)cc3)cc2)cc1 | 0
